Data origin, for the record: patent US20250101041A1

Provide the reported pEC50 of each item.
- TESTED_ON: human mAChR M4 (Homo sapiens)
- Sequence (P08173 1-479): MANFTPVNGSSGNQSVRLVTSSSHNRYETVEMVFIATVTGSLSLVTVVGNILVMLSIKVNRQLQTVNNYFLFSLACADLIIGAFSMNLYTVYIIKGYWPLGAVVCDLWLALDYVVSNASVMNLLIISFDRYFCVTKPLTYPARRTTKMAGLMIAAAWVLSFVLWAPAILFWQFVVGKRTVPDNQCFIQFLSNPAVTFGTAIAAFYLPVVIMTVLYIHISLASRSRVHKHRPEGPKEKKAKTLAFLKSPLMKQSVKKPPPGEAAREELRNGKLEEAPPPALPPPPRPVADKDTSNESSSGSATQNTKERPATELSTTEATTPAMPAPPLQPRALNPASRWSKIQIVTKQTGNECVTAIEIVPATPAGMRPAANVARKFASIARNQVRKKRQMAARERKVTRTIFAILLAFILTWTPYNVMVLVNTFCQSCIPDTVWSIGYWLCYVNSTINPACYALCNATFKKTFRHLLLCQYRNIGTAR
- EXPERIMENTAL_DETAILS: mAChR M4 cell-based functional assay: calcium mobilization (Fluo-4, FDSS), potentiation of EC20 acetylcholine response in hM4-Gqi5 CHO-K1 cells
- APPLIED_CONDITIONS: potentiation of EC20 acetylcholine response, calcium mobilization, human M4
FYI, pEC50 means -log10 of a concentration in mol per litre.

Result for Cc1cc2nccc(=O)n2nc1N1CCc2ncc(-n3cccn3)cc2C1 , tested on human mAChR M4 (Homo sapiens), pEC50: 5.93

Result for Cc1cc2nc(C(=O)N3CC(C)(F)C3)cc(=O)n2nc1N1CCc2ncc(C(F)(F)F)cc2C1 , tested on human mAChR M4 (Homo sapiens), pEC50: 6.78

Result for Cc1cnccc1Nc1cnc2c(c1)CN(c1nn3c(=O)ccnc3cc1C)CC2 , tested on human mAChR M4 (Homo sapiens), pEC50: 6.23

Result for Cc1cc(=O)n2nc(N3CCc4ncc(N5CCCn6nccc65)cc4C3)c(C)cc2n1 , tested on human mAChR M4 (Homo sapiens), pEC50: 7.15

###

- TESTED_ON: human mAChR M4 (Homo sapiens, UniProt P08173)
- EXPERIMENTAL_DETAILS: mAChR M4 cell-based functional assay: calcium mobilization (Fluo-4, FDSS), potentiation of EC20 acetylcholine response in hM4-Gqi5 CHO-K1 cells
- APPLIED_CONDITIONS: potentiation of EC20 acetylcholine response, calcium mobilization, human M4
Provide the reported log10 of EC50 of each item.
Hi team, quick reminder: these entries are log10 of EC50 (nM).

Result for Cc1cc2nc(C(=O)N3CC(C)C3)cc(=O)n2nc1N1CCc2ncc(C(F)(F)F)cc2C1 , tested on human mAChR M4 (Homo sapiens, UniProt P08173), log10 of EC50: 2.45

Result for Cc1cc(=O)n2nc(N3CCc4ncc(N5CC6CCC(C5)O6)cc4C3)c(C)c(C)c2n1 , tested on human mAChR M4 (Homo sapiens, UniProt P08173), log10 of EC50: 2.49

Result for Cc1ccc2c(c1)N(c1cnc3c(c1)CN(c1nn4c(=O)ccnc4cc1C)CC3)C(C)CO2 (centres unmarked) , tested on human mAChR M4 (Homo sapiens, UniProt P08173), log10 of EC50: 1.81

Result for CCc1ccncc1-c1cnc2c(c1)CN(c1nn3c(=O)ccnc3c(C)c1C)CC2 , tested on human mAChR M4 (Homo sapiens, UniProt P08173), log10 of EC50: 1.57

Result for Cc1cc(=O)n2nc(N3CCc4ncc(-c5cnn(C(F)F)c5)cc4C3)c(C)cc2n1 , tested on human mAChR M4 (Homo sapiens, UniProt P08173), log10 of EC50: 2.53

Result for Cc1cc(=O)n2nc(N3CCc4ncc(-c5ccnn5C5COC5)cc4C3)c(C)c(C)c2n1 , tested on human mAChR M4 (Homo sapiens, UniProt P08173), log10 of EC50: 3.68

Result for Cc1cc2nccc(=O)n2nc1N1CCc2ncc(-c3cccnc3C(F)F)cc2C1 , tested on human mAChR M4 (Homo sapiens, UniProt P08173), log10 of EC50: 2.92

Result for COc1ccccc1-c1cnc2c(c1)CN(c1nn3c(=O)cc(C)nc3cc1C)CC2 , tested on human mAChR M4 (Homo sapiens, UniProt P08173), log10 of EC50: 2.87
